- Test system: SW480 colorectal cancer cells
- assay.comment: Gene expression qRT-PCR in SW480 cells
- Assay type: cell-based
- condition.summary: Homo sapiens; SW480, 3 μM, 24 hours, relative to DMSO; read-out: gene expression fold change SRSF1
Label true (1) when fold induction at 3 µM is strictly below 0.3; otherwise label false (0).

Example entries begin here.
Nc1cncc(-c2ccc3cnc(NC(=O)c4ccc(OC5CCNCC5)cc4)cc3c2)c1 = false (0)
CN1CCC(C(=O)Nc2c[nH]nc2-c2nc3c(-c4cccc(F)c4)cccc3[nH]2)CC1 = false (0)
Cc1n[nH]c2ncc(-c3cncc(OC[C@@H](N)Cc4ccccc4)n3)cc12 = true (1)
O=C(Nc1cc2cc(-c3cncc(NCC4(F)CNC4)n3)ccc2cn1)C1CC1 = true (1)

Next, consider the following compound.
I'd appreciate it if you could check whether O=C(Nc1cc2cc(-c3cncc(NC4CCNC[C@@H]4F)n3)ccc2cn1)C1CC1 (stereo partly drawn) has fold induction at 3 µM smaller than 0.3.
false (0)

###

- Test system: CAMA1
- assay.comment: CellTiter-Glo Viability Assay, breast cancer
- Format: cell-based
- condition.summary: Homo sapiens, CAMA-1, 96 h; CAMA1, breast cancer, four days; read-out: EC50
Categories are defined by ranges of EC50, namely one: < 0.3 µM; two: ≥ 0.3 µM and < 0.7 µM; three: ≥ 0.7 µM

The examples below pair each entry with its known result.
c1cncc(-c2ccc3[nH]nc(-c4cc5c(-c6cccnc6)cncc5[nH]4)c3c2)c1 = three
Cn1ncc(-c2ccc3cnc(NC(=O)c4cccc(CN5CCCC5)c4)cc3c2)c1CN1CCCCC1 = two
CN1CCC(Sc2ccc3cnc(NC(=O)c4ccnc(SC5CCN(C)CC5)c4)cc3c2)CC1 = three
O=C1CCc2cccc(c2)-c2cncc3[nH]c(nc23)-c2n[nH]c3ccc(cc23)-c2cncc(c2)N1 = three
CN1CCC(Oc2ccc(NC(=O)c3n[nH]cc3/C=C/c3cccnc3)cn2)CC1 = three

Could you now consider this next compound?
Determine which band this compound sits in: "O=C(Nc1c[nH]nc1-c1nc2c(-c3cccc(F)c3)cncc2[nH]1)c1cccnc1"
one

###

- Tested on: liver cancer (3 cell lines)
- assay.comment: CellTiter-Glo Viability Assay, liver cancer
- Format: cell-based
- condition.summary: Homo sapiens, SNU-398; SNU398 cell line; inhibition of cancer cell proliferation; read-out: Liver cancer, EC50 SNU398
Recorded pEC50 by entry
Formally, pEC50 is defined as -log10 of the concentration c, with c in mol/L.

CN1CCN(c2ccc(NC(=O)c3n[nH]c4ccc(-c5cncc(NC(=O)C6CC6)c5)cc34)cn2)CC1 = 6.92
CN1CCN(c2cc(Nc3ncc4c(-c5ccc6ncccc6c5)c[nH]c4n3)ccn2)CC1 = 7.15
CN1CCC(C(=O)Nc2c[nH]nc2-c2nc3c(-c4ccc(F)s4)cccc3[nH]2)CC1 = 7.26
CN1CCC(Oc2ccc(C(=O)Nc3cc4cc(-c5cnn(C)c5)ccc4cn3)cc2)CC1 = 6.87
CN(C)C1CN(c2cc(C(=O)Nc3cc4cc(-c5cnn(C)c5)ccc4cn3)ccn2)C1 = 6.69

Quick one: give measured pEC50 for "Cn1ncc(-c2ccc3cnc(NC(=O)C4CC5(C4)CN(CCF)C5)cc3c2)c1CN1CCCCC1"
6.47

Provide measured pEC50 value, entry: "O=C(Nc1c[nH]nc1-c1nc2c(-c3cccc(F)c3)cncc2[nH]1)c1cccnc1"
7.42

State its pEC50: "O=C(Nc1ccc(OCCN2CCCC2)cc1)c1n[nH]cc1/C=C/c1cccnc1"
5.31

###

- Tested on: six gastric cancer (GC) cell lines
- assay.comment: CellTiter-Blue Cell Viability Assay, panel of gastric cancer cell lines
- Format: cell-based
- condition.summary: Homo sapiens; six gastric cancer cell lines; read-out: Average EC50 of all cell lines
readout.label: pEC50
pEC50 field: float, defined as -log10 of concentration (mol/L).

Entry "CN1CCN(c2cc(C(=O)Nc3cc4cc(-c5cnn(C)c5)ccc4cn3)ccn2)CC1" needs its pEC50 filled in; supply it.
6.75

###

Quick list: EC50 per entry.
- Tested on: ovarian cancer (4 cell lines)
- assay.comment: CellTiter-Glo Viability Assay, ovarian cancer
- Type: cell-based
- condition.summary: Homo sapiens, PA-1; PA1 cell line; inhibition of cancer cell proliferation; read-out: Ovarian cancer, EC50 (μM) PA1
Answer format: numeric, µM implied, no suffix.

Some entries whose results are on file:
CC(C)CC(=O)Nc1cncc(-c2ccc3[nH]nc(-c4cc5c(N6CCCCC6)cncc5[nH]4)c3c2)c1 = 1.09
CN(C)CCOc1cc(C(=O)Nc2cc3cc(-c4cnn(C)c4)ccc3cn2)ccn1 = 0.325
CN1CCN(c2cc(C(=O)Nc3cc4cc(-c5cnn(C)c5)c(F)cc4cn3)ccn2)CC1 = 0.195
CN1CCN(c2cc(C(=O)Nc3cc4cc(-c5cnn(C)c5N)ccc4cn3)ccn2)CC1 = 0.12

State, in one line, measured EC50 of "CN1CCC(Sc2ccc3cnc(NC(=O)c4ccnc(SC5CCN(C)CC5)c4)cc3c2)CC1"
1.05

# return recorded EC50 for entry "c1cc2cc(c1)-c1cncc3[nH]c(nc13)-c1n[nH]c3ccc(cc13)-c1cncc(c1)CNC2"
0.147

Give the value of EC50 reported for the following: "O=C1COc2cccc(c2)-c2cncc3[nH]c(nc23)-c2n[nH]c3ccc(cc23)-c2cncc(c2)N1"
0.767

Supply EC50 value. Item: "Cn1ncc(-c2ccc3cnc(NC(=O)C4CC5(C4)CN(CCF)C5)cc3c2)c1CN1CCCCC1"
0.71

###

- assay.system: CLK3 (Homo sapiens, UniProt P49761)
- Sequence (P49761 whole entry): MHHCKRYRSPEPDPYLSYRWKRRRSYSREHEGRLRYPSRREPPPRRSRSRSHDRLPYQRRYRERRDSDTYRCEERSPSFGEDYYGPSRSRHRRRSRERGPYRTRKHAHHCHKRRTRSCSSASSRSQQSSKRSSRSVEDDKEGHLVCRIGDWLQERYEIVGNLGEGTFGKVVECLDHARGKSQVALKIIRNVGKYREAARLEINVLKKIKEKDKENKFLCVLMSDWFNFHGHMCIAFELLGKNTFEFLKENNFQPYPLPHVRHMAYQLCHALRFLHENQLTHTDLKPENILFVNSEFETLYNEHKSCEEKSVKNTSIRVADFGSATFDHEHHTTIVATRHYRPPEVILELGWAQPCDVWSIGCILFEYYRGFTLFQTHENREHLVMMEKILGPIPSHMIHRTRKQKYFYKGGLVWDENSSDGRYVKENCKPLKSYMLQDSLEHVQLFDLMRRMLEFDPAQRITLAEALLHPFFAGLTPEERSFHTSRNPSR
- assay.comment: CLK3 kinase activity assay (Z-lyte, Ser/Thr 18 peptide)
Listing of recorded EC50 by entry.
// units = nM; emit number, no label

Answered examples (3):
CN1CC=C(c2cc(C(=O)Nc3cc4cc(-c5cncc(NC(C)(C)C)n5)cnc4cn3)ccn2)CC1 = 11.5
CCC(=O)Nc1cncc(-c2ccc3[nH]nc(-c4nc5c(-c6cccnc6)cncc5[nH]4)c3c2)c1 = 14
Cc1n[nH]c2ccc(-c3cncc(N[C@H]4CC[C@@H](N)CC4)n3)cc12 = 482

We next turn to a different compound, shown below.
For the compound "CN1CCC(Oc2ccc(NC(=O)c3n[nH]c4ccc(-c5cncc(N)c5)cc34)cc2)CC1" , report EC50.
13

###

- Tested on: haematopoietic & lymphoid tumors (13 cell lines)
- assay.comment: CellTiter-Glo Viability Assay, haematopoietic & lymphoid tumors
- Assay type: cell-based
- condition.summary: Homo sapiens, DND41; DND-41 cell line; inhibition of cancer cell proliferation; read-out: Haematopoietic & Lymphoid tumors, EC50 (μM) DND-41
readout.label: EC50 (µM)
Provide only the numeric value, understood in µM.

Examples with answers:
CN1CCN(c2cc(C(=O)Nc3cc4cc(-c5cnn(C)c5)c(F)cc4cn3)ccn2)CC1 = 0.225
CN1CCN(c2cc(C(=O)Nc3cc4cc(-c5cnn(C)c5N)ccc4cn3)ccn2)CC1 = 0.154
O=C(Nc1cncc(-c2ccc3[nH]nc(-c4cc5cnccc5[nH]4)c3c2)c1)C1CCCCC1 = 0.129

In one line, give reported EC50 of the entry "c1cc2cc(c1)-c1cncc3[nH]c(nc13)-c1n[nH]c3ccc(cc13)-c1cncc(c1)CNC2" .
0.031

Give recorded EC50. "CN1CCC(Oc2ccc(C(=O)Nc3cc4cc(-c5cnn(C)c5)ccc4cn3)cc2)CC1"
0.571

Give a short answer stating reported EC50 for "O=C1COc2cccc(c2)-c2cncc3[nH]c(nc23)-c2n[nH]c3ccc(cc23)-c2cncc(c2)N1" .
0.959

Kindly indicate its recorded EC50. Item: "CN1CCC2(CC1)CN(c1cc(C(=O)Nc3cc4cc(-c5cnn(C)c5)ccc4cn3)ccn1)C2"
0.191

Answer with the recorded EC50 for the molecule listed here: "CN1CCC(Sc2ccc3cnc(NC(=O)c4ccnc(SC5CCN(C)CC5)c4)cc3c2)CC1"
1

###

- assay.system: AAK1 (Homo sapiens, UniProt Q2M2I8)
- Sequence (Q2M2I8 whole entry): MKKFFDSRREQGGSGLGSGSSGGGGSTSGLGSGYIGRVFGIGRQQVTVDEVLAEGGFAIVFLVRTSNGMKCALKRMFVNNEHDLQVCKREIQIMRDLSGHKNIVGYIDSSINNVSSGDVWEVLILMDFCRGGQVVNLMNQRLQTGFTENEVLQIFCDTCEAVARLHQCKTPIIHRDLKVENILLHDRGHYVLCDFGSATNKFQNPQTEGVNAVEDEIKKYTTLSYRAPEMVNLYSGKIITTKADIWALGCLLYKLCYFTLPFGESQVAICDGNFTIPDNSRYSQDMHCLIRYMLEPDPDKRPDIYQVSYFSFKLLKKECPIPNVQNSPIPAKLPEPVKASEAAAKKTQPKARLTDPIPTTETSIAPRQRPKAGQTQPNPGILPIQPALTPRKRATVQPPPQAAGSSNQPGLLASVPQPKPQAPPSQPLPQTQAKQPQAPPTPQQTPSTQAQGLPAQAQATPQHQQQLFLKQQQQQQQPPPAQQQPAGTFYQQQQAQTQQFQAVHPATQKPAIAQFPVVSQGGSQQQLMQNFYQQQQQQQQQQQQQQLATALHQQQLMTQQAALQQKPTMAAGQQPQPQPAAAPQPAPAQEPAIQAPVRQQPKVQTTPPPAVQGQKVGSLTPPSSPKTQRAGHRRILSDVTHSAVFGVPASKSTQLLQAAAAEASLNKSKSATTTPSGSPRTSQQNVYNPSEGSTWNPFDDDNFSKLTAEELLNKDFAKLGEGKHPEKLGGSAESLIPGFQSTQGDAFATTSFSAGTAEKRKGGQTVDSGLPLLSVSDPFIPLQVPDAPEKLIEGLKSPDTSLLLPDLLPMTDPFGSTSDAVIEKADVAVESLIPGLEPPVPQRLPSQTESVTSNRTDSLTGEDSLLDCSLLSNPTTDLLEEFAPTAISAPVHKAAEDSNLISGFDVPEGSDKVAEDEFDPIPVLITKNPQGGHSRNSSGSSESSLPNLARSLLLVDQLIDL
readout.label: IC50 (nM)
State the answer as a number, implicitly in nM.

Supply IC50 measured with AAK1 (Homo sapiens, UniProt Q2M2I8) for "CN1CCN(c2cc(C(=O)Nc3cc4cc(-c5cnn(C)c5)ccc4cn3)ccn2)CC1" .
23

###

- assay.comment: Body weight in tumor xenograft studies
- Assay type: in vivo, mice
- condition.summary: all studies, all doses
readout.label: body weight changes compared to baseline by end of the studies

Supply measured body weight changes compared to baseline by end of the studies of "CN1CCN(c2cc(C(=O)Nc3cc4cc(-c5cnn(C)c5)ccc4cn3)ccn2)CC1" in your reply.
> -10%

###

- assay.system: CLK1 (Homo sapiens)
- Sequence (P49759 whole entry): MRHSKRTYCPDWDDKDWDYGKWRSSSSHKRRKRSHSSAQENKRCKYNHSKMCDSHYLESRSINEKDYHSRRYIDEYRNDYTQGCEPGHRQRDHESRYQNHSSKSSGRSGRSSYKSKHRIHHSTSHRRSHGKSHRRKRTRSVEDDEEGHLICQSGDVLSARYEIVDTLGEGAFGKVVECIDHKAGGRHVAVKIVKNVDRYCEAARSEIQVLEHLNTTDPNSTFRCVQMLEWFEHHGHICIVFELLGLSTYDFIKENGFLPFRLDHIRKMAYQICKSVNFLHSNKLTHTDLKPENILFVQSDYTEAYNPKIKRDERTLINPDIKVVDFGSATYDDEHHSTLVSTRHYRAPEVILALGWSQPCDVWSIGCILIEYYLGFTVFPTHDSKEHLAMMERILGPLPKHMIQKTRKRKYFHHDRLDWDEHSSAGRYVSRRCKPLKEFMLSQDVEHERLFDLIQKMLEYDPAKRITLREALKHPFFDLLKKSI
readout.label: pIC50
// field semantics: pIC50 = negative decimal log of concentration (mol/L)

Answer briefly: pIC50 recorded on CLK1 (Homo sapiens) for CN1CCN(c2cc(C(=O)Nc3cc4cc(-c5cnn(C)c5)ccc4cn3)ccn2)CC1 [Compound 12]
8.10
